- system: A1513T SUR2A NBD2
- methodDescription: NBD2 ATPase activity by spectrophotometry, A1513T mutant
- experimentalContext: ADP-dependent inhibition at 2 mM ATP, read-out: ADP-dissociation constant (KADP)
recordedMetric: pKd
Value format note: pKd is -log10 of concentration (mol/L); just state the number.

Qu. pKd lookup needed for Nc1ncnc2c1ncn2[C@@H]1O[C@H](COP(=O)(O)OP(=O)(O)O)[C@@H](O)[C@H]1O , thanks.
Ans. 4.60

---

- system: Fs1524 SUR2A NBD2
- methodDescription: NBD2 ATPase activity by spectrophotometry, Fs1524 mutant
- experimentalContext: ADP-dependent inhibition at 2 mM ATP, read-out: ADP-dissociation constant (KADP)
- Description: Cloning of KATP channel subunits and purification of SUR2A ATPase. cDNAs encoding SUR2A and Kir6.2 were subcloned into the expression vector pcDNA3.1. […] Enzymology and nucleotide binding. […] Binding of fluorescent ATP analog TNP-ATP to purified NBD2 constructs was determined by fluorescence spectrophotometry (QuantaMaster, PTI) at excitation and emission wavelengths of 410 nm and 540 nm, respectively. […]
recordedMetric: pKd
Value format note: pKd is -log10 of concentration (mol/L); just state the number.

Qu. pKd lookup needed for Nc1ncnc2c1ncn2[C@@H]1O[C@H](COP(=O)(O)OP(=O)(O)O)[C@@H](O)[C@H]1O [ADP] , thanks.
Ans. 4.96
